system: Trypanosoma cruzi; test: Antitrypanosomal activity against Trypanosoma cruzi Tulahuen 2 epimastigotes assessed as inhibition of parasite growth at 25 uM relative to control; type: functional; details: read-out: GI
Listing: inhibition of growth at 25 µM of selected molecules
Record the value in %, omitting the unit from your answer.

1) COc1ccc(-c2c(C#N)[n+]([O-])c3cc(C)ccc3[n+]2[O-])cc1 :: 94.6
2) Cc1cc2c(cc1C)[n+]([O-])c(-c1ccco1)c(C#N)[n+]2[O-] :: 64.7
3) N#Cc1c(-c2ccco2)[n+]([O-])c2ccc(C(F)(F)F)cc2[n+]1[O-] :: 100
4) Cc1cc2c(cc1C)[n+]([O-])c(-c1cccs1)c(C#N)[n+]2[O-] :: 84.8

COc1ccc(-c2c(C#N)[n+]([O-])c3cc(Cl)c(Cl)cc3[n+]2[O-])cc1 yielded inhibition of growth at 25 µM of 42.7

COc1ccccc1N1CCN(c2c(C#N)[n+]([O-])c3cc(Cl)ccc3[n+]2[O-])CC1 yielded inhibition of growth at 25 µM of 100
